Test system: T-47D breast
assay: NCI tumour cell line growth inhibition, 48 h

molecule | op | TGI [µM]
CCOC(=O)[C@@H](C)C[C@H](Cc1ccccc1)NC(=O)c1csc([C@@H](C[C@H](C(C)C)N(C)C(=O)[C@@H](NC(=O)[C@H]2CCCCN2C)C(C)(C)CC)OC(C)=O)n1 | > | 16.7
O=C(Nc1ccc([N+](=O)[O-])cc1)Nn1cnnc1 | > | 100
COc1cc2c(c(OC)c1OC)-c1ccc(NN(C(=O)c3ccccc3)C(=O)c3ccccc3)c(=O)cc1[C@@H](NC(C)=O)CC2 (tested in a mixture with another compound) | = | 42
O=C(Nc1ccc(Oc2ccc(F)cc2)cc1)[C@@H]1C[C@@H](Cc2ccc(F)cc2)CN1C(=O)Cn1ccnn1 | = | 36.5

* * *

Some molecules, each annotated with its measured TGI.
Tested on: UACC-62 melanoma
assay: NCI tumour cell line growth inhibition, 48 h
observable: TGI

molecule | reported_value
COc1cc(CNCCCCCCN2C(=O)c3cccc4cccc(c34)C2=O)ccc1O | 26.2 µM
CCN(CC)CCCNc1c2c(Cl)cc(Cl)cc2nc2nc(=O)[nH]c(C)c12 | > 100 µM
O=C1CCN2c3ccccc3[C@H]3Cc4cccc(c4[C@@H]2C3)CCO1 | > 100 µM
CC(C)c1cccc(C(C)C)c1NC(=O)C(=O)Cc1nc2ccc([N+](=O)[O-])cc2[nH]c1=O | > 100 µM
CCOC(=O)Cc1cc(OC)c(OC)cc1/C(Cl)=C(\CO)c1ccc(OC)c(OC)c1 | > 100 µM
Cc1ccc(NC(=O)CCc2nc(=S)[nH][nH]2)cc1 | > 100 µM
COc1ccc(-c2cc(=O)c3c(O)c(OC)c(OC)c(OC)c3o2)cc1OC | > 100 µM
N#CC(NNC(=O)Cc1ccccc1)c1cccc(O)c1 (stereo not given) | > 100 µM
CNC(=O)c1n[nH]n(C2CCCCC2)c1=S | > 100 µM
CCOC(=O)C(C)(NC(=O)c1ccc(NCc2ccc3nc(NC(=O)c4ccccc4)nc(NC(=O)c4ccccc4)c3c2)cc1)C(=O)OCC | 22.1 µM

* * *

Tested on: TK-10 renal
assay: NCI tumour cell line growth inhibition, 48 h
Listed molecules paired with reported TGI

molecule | measurement_target | op | TGI, µM
COc1ccccc1NC(=O)C1=C(C)NC(C)=C(C(=O)Nc2ccccc2OC)C1c1ccccc1[N+](=O)[O-] | TK-10 renal | = | 59.2
CC(C)=CCCC(C)(OC1OC(CO)C(O)C(O)C1O)C1CCC2(C)C1C(O)CC1C3(C)CCC(O)C(C)(C)C3C(OC3OC(CO)C(O)C(O)C3OC3OC(C)C(O)C(O)C3O)CC12C (centres undefined) (tested in a mixture with another compound) | TK-10 renal | > | 75
COc1ccc(C(O)/C(=N/N)c2nc3ccc(Cl)cc3[nH]c2=O)cc1 (centres undefined) | TK-10 renal | > | 100
CN(C)CCNc1ccc2ncn3c4ccccc4c(=O)c1c23 | TK-10 renal | = | 46.7

* * *

Test system: NCI/ADR-RES ovarian
assay: NCI tumour cell line growth inhibition, 48 h
Recorded TGI, one value per entry.

molecule | TGI
CS(=O)(=O)N1CC(CCl)c2ccc(NO)cc21 (stereo unspecified) | 22.9 µM
O=C1CC(c2c[nH]c3ccc(F)cc23)C(=O)N1 (stereo unspecified) | > 100 µM
COc1cc(/C=C2\C(=O)N(Cc3ccc(Cl)cc3)c3ccccc32)cc(OC)c1OC | 9.96 µM
CN(C)c1ccc(/C=C\c2ccnc3ccccc23)cc1 | > 58.5 µM
CCOC(=O)C(NC(=O)OCc1ccccc1)C(=O)O (stereo unspecified) | > 100 µM
COc1ccc(C2=Nc3c(nc(OC)[nH]c3=O)NC(c3ccccc3)C2)cc1 (stereo unspecified) | > 100 µM

* * *

Test system: U251 CNS
assay: NCI tumour cell line growth inhibition, 48 h
compounds and their reported TGI
observable: TGI (µM)

compound | measurement_target | op | reported_value
COc1cc(-c2cc(/C=C/C(=O)c3ccc(F)c(F)c3)[nH]n2)cc(OC)c1OC | U251 CNS | = | 15.7
CC(C)[C@@H]1CC[C@@H](C)C[C@H]1OC(=O)c1c2n(c3ccccc13)C[C@H]1OC(C)(C)O[C@@H]21 | U251 CNS | = | 32.5
CCN(CC)c1ccc(/C=C/C(=O)c2ccc(Nc3nc(Nc4ccccc4)nc(Nc4ccccc4)n3)cc2)cc1 | U251 CNS | > | 100
COc1cnc2c(c1)C(=O)c1c-2n(CCCNC2=NCCS2)c(=O)c2cc(F)ccc12 | U251 CNS | = | 1.35
COc1cc2ccc3c4ccccc4cnc3c2cc1OC | U251 CNS | > | 100
C[C@]12C=CC(=O)C=C1CC[C@@H]1[C@@H]2CC[C@@]2(C)[C@H]1CC[C@]2(O)C(N)=O | U251 CNS | > | 100
CC(C)C1CNC(=O)C2(C=NC(C(C)C)CNC(=O)C3(C=N1)CCCO3)CCCO2 (centres undefined) | U251 CNS | > | 10
Cn1c(CBr)nc2c1C(=O)c1nc(CBr)[nH]c(=O)c1C2=O | U251 CNS | > | 100
C=C1C(=O)O[C@H]2[C@H]1CC/C(COC(=O)c1cc(OC)c(OC)c(OC)c1)=C\CC[C@@]1(C)O[C@@H]21 | U251 CNS | = | 3.47

* * *

System: SNB-19 CNS
assay: NCI tumour cell line growth inhibition, 48 h
observable: GI50

smiles_input | measurement_target | reported_value
O=C(Nc1ccc(Oc2ccc3nc(NC(=O)c4ccco4)[nH]c3c2)cc1)Nc1cc(C(F)(F)F)ccc1F | SNB-19 CNS | 6.95 µM
COc1cc2cc(Oc3ccc(NC(=O)Nc4cc(C(F)(F)F)cc(C(F)(F)F)c4)cc3)c(C)nc2cc1OCCN1CCOCC1 | SNB-19 CNS | 1.88 µM
C=C1C(=O)O[C@H]2[C@H]1CC/C(COC(=O)c1cc(OC)c(OC)c(OC)c1)=C\CC[C@@]1(C)O[C@@H]21 | SNB-19 CNS | 2.55 µM
CN(C)c1ccc(/C=C\c2ccnc3ccccc23)cc1 | SNB-19 CNS | 10.6 µM
CN1CCN(CC(=O)N(C)c2ccc(N=C(c3ccccc3)c3c(O)[nH]c4ccc(C#N)cc34)cc2)CC1 | SNB-19 CNS | 4.16 µM
O=C1/C(=C/c2ccc(Cl)c(Cl)c2)CN(C(=O)C(Cl)Cl)C/C1=C\c1ccc(Cl)c(Cl)c1 | SNB-19 CNS | 0.11 µM
COc1cc(-c2cc(/C=C/C(=O)c3ccc(F)c(F)c3)[nH]n2)cc(OC)c1OC | SNB-19 CNS | 3.64 µM
CCOCC1(COCC)CCC(c2[nH]ncc2CN(C)CCNC)CC1 | SNB-19 CNS | > 100 µM
COc1cc(CNCCCCCCN2C(=O)c3cccc4cccc(c34)C2=O)ccc1O | SNB-19 CNS | 13.6 µM
CCOC(=O)CSc1cc(Cl)c(C)cc1S(=O)(=O)/N=C(/N=C/c1ccc([N+](=O)[O-])s1)NNC | SNB-19 CNS | 22.8 µM
c1cc(N[C@@H]2CCNC2)nc(-c2cnc3ccc(-c4cn[nH]c4)cn23)c1 | SNB-19 CNS | 4.26 µM
COc1cc([N+](=O)[O-])c(OC)cc1-c1nc2sc(C)c(C)n2c1/C(N)=N/C(=N)N | SNB-19 CNS | 2.33 µM
CN=C(N)c1ccc(N=C(N)c2ccc(-c3ccc(C(N)=Nc4ccc(C(N)=NC)cc4)cc3)cc2)cc1 | SNB-19 CNS | > 100 µM
CC(=O)Nc1ccc(C(=O)CCl)cc1 | SNB-19 CNS | 17.2 µM
COc1cc(/C=C/C(=O)c2cccc(-n3cc(-c4cc(OC)c(OC)c(OC)c4)[nH]c3=O)c2)cc(OC)c1OC | SNB-19 CNS | 4.07 µM

* * *

System: SW-620 colon
assay: NCI tumour cell line growth inhibition, 48 h
observable: TGI

molecule | observable | reported_value
CS(=O)(=O)N1CC(CCl)c2ccc(NO)cc21 (stereo not given) | TGI | > 50.4 µM
O=C1CC(c2c[nH]c3ccc(F)cc23)C(=O)N1 (stereo not given) | TGI | > 100 µM
CC(C)=CCc1cc2c(cc1O)C1=C(C(=O)C3=C(C1=O)S(=O)(=O)CCN3)C(C=C(C)C)O2 (stereo not given) | TGI | 1.76 µM
CCNC(=O)C(C)C1CCC2(C)C=CC(=O)C(C)=C2C1O (stereo not given) | TGI | > 100 µM
COc1cc[c]([Sn]([c]2ccc(OC)cc2)([c]2ccc(OC)cc2)[c]2ccc(OC)cc2)cc1 | TGI | 55.9 µM
Nc1nnc2c(-c3ccccc3)[nH]nc2n1 | TGI | > 100 µM
Cc1cccc(C2ON=C(c3ccccc3)N2C23CC4CC(CC(C4)C2)C3)c1 (stereo not given) | TGI | > 10 µM
CC1(C)OP(=O)(c2ccccc2)C=C1Sc1ccc([N+](=O)[O-])cc1[N+](=O)[O-] (stereo not given) | TGI | > 100 µM
COc1cc(OC2OC(CO)C(O)C(O)C2O)c2c(O)c3c(=O)cc(C)oc3cc2c1 (stereo not given) | TGI | > 100 µM
O=C1NC(=S)S/C1=C\c1cn(-c2ccccc2)nc1-c1ccccc1 | TGI | > 100 µM
